assay: Cytotoxicity against human BEAS2B cells after 72 hrs by MTT assay; type: cell-based, BEAS-2B; settings: beas-2b, 72 h
As shown below, each of these compounds has a reported TGI value.

>  <compound>
CCCCC[Se]c1nc(NCc2ccccc2)c2ccccc2n1

>  <operator>
>

>  <TGI, µM>
100

$$$$
>  <compound>
CCCCCSc1nc(NCc2ccc([Se]C)cc2)c2ccccc2n1

>  <operator>
>

>  <TGI, µM>
100

$$$$
>  <compound>
C[Se]c1nc(N)c2cccnc2n1

>  <operator>
=

>  <TGI, µM>
90.81

$$$$
>  <compound>
C[Se]c1nc(N)c2ccccc2n1

>  <operator>
=

>  <TGI, µM>
54.56

$$$$
>  <compound>
COc1ccc(CNc2nc([Se]C)nc3ccccc23)cc1

>  <operator>
>

>  <TGI, µM>
100

$$$$
>  <compound>
CCCCC[Se]c1nc(N)c2ccccc2n1

>  <operator>
>

>  <TGI, µM>
100

$$$$
>  <compound>
CSc1ccc(CNc2nc([Se]C)nc3ccccc23)cc1

>  <operator>
=

>  <TGI, µM>
78.54

$$$$
>  <compound>
CSc1nc(NCCCCCO)c2ccccc2n1

>  <operator>
=

>  <TGI, µM>
99.35

$$$$
>  <compound>
CSc1ccc(CNc2nc([SeH])nc3ccccc23)cc1

>  <operator>
=

>  <TGI, µM>
58.21

$$$$
>  <compound>
CCCCCSc1nc(O)c2ccccc2n1

>  <operator>
>

>  <TGI, µM>
100

$$$$
>  <compound>
Nc1nc([SeH])nc2ccccc12

>  <operator>
>

>  <TGI, µM>
100

$$$$
>  <compound>
CSc1nc(Nc2ccccc2)c2ccccc2n1

>  <operator>
>

>  <TGI, µM>
100

$$$$
>  <compound>
Sc1nc(NCc2ccccc2)c2ccccc2n1

>  <operator>
>

>  <TGI, µM>
100

$$$$
>  <compound>
CSc1nc(NCCCCCO)c2cccnc2n1

>  <operator>
>

>  <TGI, µM>
100

$$$$
>  <compound>
Nc1nc([SeH])nc2ncccc12

>  <operator>
=

>  <TGI, µM>
87.73

$$$$
>  <compound>
CSc1ccc(CNc2nc(SC)nc3ccccc23)cc1

>  <operator>
=

>  <TGI, µM>
59.11

$$$$
>  <compound>
CSc1nc(NCCCCc2ccccc2)c2ccccc2n1

>  <operator>
>

>  <TGI, µM>
100

$$$$
>  <compound>
[SeH]c1nc(NCc2ccccc2)c2ccccc2n1

>  <operator>
>

>  <TGI, µM>
100

$$$$
>  <compound>
COc1ccc(CNc2nc(SC)nc3ncccc23)cc1

>  <operator>
>

>  <TGI, µM>
100

$$$$
>  <compound>
C[Se]c1nc(NCc2ccccc2)c2ccccc2n1

>  <operator>
=

>  <TGI, µM>
36.96

$$$$
>  <compound>
[Se]=C=NCc1ccccc1 [BENZYLISOSELENOCYANATE]

>  <operator>
=

>  <TGI, µM>
32.75

$$$$
>  <compound>
CCCCC[Se]c1nc(N)c2cccnc2n1

>  <operator>
=

>  <TGI, µM>
44.89

$$$$
>  <compound>
[SeH]c1nc(NCc2ccccc2)c2cccnc2n1

>  <operator>
>

>  <TGI, µM>
100

$$$$
>  <compound>
CSc1nc(NCc2ccccc2)c2cccnc2n1

>  <operator>
=

>  <TGI, µM>
61.7

$$$$
>  <compound>
CCCCC[Se]c1nc([Se]CCCCC)c2cccnc2n1

>  <operator>
>

>  <TGI, µM>
100

$$$$
>  <compound>
CSc1nc(NCCCc2ccccc2)c2ccccc2n1

>  <operator>
>

>  <TGI, µM>
100

$$$$
>  <compound>
CSc1nc(NCCc2ccccc2)c2ccccc2n1

>  <operator>
=

>  <TGI, µM>
94.8

$$$$
>  <compound>
COc1ccc(CNc2nc(S)nc3ccccc23)cc1

>  <operator>
=

>  <TGI, µM>
32.5

$$$$
